Tested on: Bloodstream form of Trypanosoma brucei, strain Lister 427
Procedure summary: Trypanosoma brucei growth inhibition assay (CellTiter-Glo, 24 h)
Type: cell-based
Assay context: Trypanosoma brucei; T. Brucei Growth Inibition Assay, class symbols; read-out: T. Brucei GI EC50
pEC50: −log10 of the molar value.
Assay readout: pEC50

>>> result("COc1ccc2nc(C(F)(F)F)n(CC(=O)N3CCN(C(C)C)CCC3c3ncc(-c4cc5ccccc5nc4OC)[nH]3)c2c1 (centres unmarked)")
"6.30 to 7.00"
>>> result("COc1nc2ccccc2cc1-c1cnc(C2CN(C(=O)OCc3ccccc3)CCN2C(=O)Cn2c(C)nc3ccccc32)[nH]1 (centres unmarked)")
"5.30 to 6.00"
>>> result("COc1nc2ccccc2cc1-c1cnc(C2CN(C3CCN(C)CC3)CCN2C(=O)Cc2c(C)[nH]c3ccc(F)cc23)[nH]1 (centres unmarked)")
"6.00 to 6.29"
>>> result("COc1nc2ccccc2cc1-c1cnc([C@@H]2CN(CC3CCOC3)CCN2C(=O)Cn2c(C)nc3cncnc32)[nH]1 (some centres unmarked)")
"6.30 to 7.00"

# input for lookup
Indicate the recorded pEC50 value for this molecule: COc1nc2ccccc2cc1-c1cnc(C2CN(CC3CCOC3)CCN2C(=O)Cn2c(C3CC3)nc3ccccc32)[nH]1 (centres unmarked)
6.30 to 7.00

###

Below, each entry is listed with its recorded pEC50.
System: Bloodstream form of Trypanosoma brucei, strain Lister 427
Procedure summary: Trypanosoma brucei growth inhibition assay (CellTiter-Glo, 24 h)
Type: cell-based
Assay context: Trypanosoma brucei; T. Brucei Growth Inibition Assay, class symbols; read-out: T. Brucei GI EC50
pEC50: −log10 of the molar value.

The following molecules have reported results that may help.
>>> result("COc1ccc2nc(C(F)(F)F)n(CC(=O)N3CCN(CCc4ccccn4)C[C@H]3c3ncc(-c4cc5ccccc5nc4OC)[nH]3)c2c1")
"> 7.00"
>>> result("Cc1[nH]c2ccc(F)cc2c1CC(=O)N1CCS(=O)(=O)CC1c1ncc(-c2ccc3ccccc3c2)[nH]1 (stereo not drawn)")
"6.30 to 7.00"

Then this molecule:
Specify pEC50 for COc1ccc2nc(C(F)(F)F)n(CC(=O)N3CCOCC3c3ncc(-c4cc5ccccc5nc4OC)[nH]3)c2c1 (stereo not drawn) , system Bloodstream form of Trypanosoma brucei, strain Lister 427.
6.30 to 7.00

###

Test system: Bloodstream form of Trypanosoma brucei, strain Lister 427
Procedure summary: Trypanosoma brucei growth inhibition assay (CellTiter-Glo, 24 h)
Assay type: cell-based
Assay context: Trypanosoma brucei; T. Brucei Growth Inibition Assay, class symbols; read-out: T. Brucei GI EC50
Listing of entries alongside the reported EC50.

Answered examples (4):
>>> result("COc1nc2ccccc2cc1-c1cnc(C2COCCN2C(=O)OCc2ccccc2)[nH]1 (centres unmarked)")
"1.01 to 5 µM"
>>> result("COc1ccc2nc(C)n(CC(=O)N3CCN(CC4CCOC4)C[C@H]3c3ncc(-c4cc5ccccc5nc4OC)[nH]3)c2c1 (some centres unmarked)")
"< 0.1 µM"
>>> result("CCC(=O)CCCN1CCN(C(=O)Cc2c(C)[nH]c3ccc(OC)cc23)C(c2ncc(-c3ccccc3)[nH]2)C1 (centres unmarked)")
"0.1 to 0.5 µM"
>>> result("COc1ccc2nc(C(F)(F)F)n(CC(=O)N3CCN(C)CCC3c3ncc(-c4cc5ccccc5nc4OC)[nH]3)c2c1 (centres unmarked)")
"0.51 to 1 µM"

For the next question, use this compound.
Output EC50 of COc1ccc2nc(C)n(CC(=O)N3CCS(=O)(=O)CC3c3ncc(-c4cc5ccccc5nc4OC)[nH]3)c2c1 (centres unmarked)
1.01 to 5 µM
